tested-system: PTHR1 receptor
Sequence (P25961 whole entry): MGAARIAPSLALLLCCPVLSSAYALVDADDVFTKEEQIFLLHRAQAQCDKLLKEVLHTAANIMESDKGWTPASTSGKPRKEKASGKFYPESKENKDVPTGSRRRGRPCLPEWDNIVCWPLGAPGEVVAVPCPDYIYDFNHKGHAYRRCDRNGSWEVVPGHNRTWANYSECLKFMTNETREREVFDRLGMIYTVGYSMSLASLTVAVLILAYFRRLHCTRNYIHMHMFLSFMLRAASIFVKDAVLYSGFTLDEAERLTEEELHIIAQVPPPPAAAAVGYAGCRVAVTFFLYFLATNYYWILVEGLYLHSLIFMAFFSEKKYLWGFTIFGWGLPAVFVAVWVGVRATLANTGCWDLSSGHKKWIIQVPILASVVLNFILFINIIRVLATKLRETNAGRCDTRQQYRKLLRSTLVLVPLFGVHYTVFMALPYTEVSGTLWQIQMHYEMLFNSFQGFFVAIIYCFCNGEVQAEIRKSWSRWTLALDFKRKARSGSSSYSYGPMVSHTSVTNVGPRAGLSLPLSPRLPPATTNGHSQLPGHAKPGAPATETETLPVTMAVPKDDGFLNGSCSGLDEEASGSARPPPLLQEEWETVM
* marks the point of attachment. Palmitoyl = CCCCCCCCCCCCCCCC(=O)*
observed-property: Fold Shift of EC50 (fold)
Your answer is read as fold, so omit the unit and give the number.

Documented Fold Shift of EC50 of Palmitoyl-TNAGRSDTRQQYRKLL-NH2 (SMILES CCCCCCCCCCCCCCCC(=O)N[C@H](C(=O)N[C@@H](CC(N)=O)C(=O)N[C@@H](C)C(=O)NCC(=O)N[C@@H](CCCNC(=N)N)C(=O)N[C@@H](CO)C(=O)N[C@@H](CC(=O)O)C(=O)N[C@H](C(=O)N[C@@H](CCCNC(=N)N)C(=O)N[C@@H](CCC(N)=O)C(=O)N[C@@H](CCC(N)=O)C(=O)N[C@@H](Cc1ccc(O)cc1)C(=O)N[C@@H](CCCNC(=N)N)C(=O)N[C@@H](CCCCN)C(=O)N[C@@H](CC(C)C)C(=O)N[C@@H](CC(C)C)C(N)=O)[C@@H](C)O)[C@@H](C)O) [Compound 68] : 12.4
